System: HIV-1DRV^RP20
Assay: microbe, parasite or virus in culture
Format: cell-based
Details: MT-4 cells, 50 TCID50 HIV-1DRV^RP20, p24 assay
propertyLabel: pIC50
One number for each entry, as −log10 of the molar value.

Which measured pIC50 value corresponds to `CC(C)CN(C[C@@H](O)[C@H](Cc1ccccc1)NC(=O)O[C@H]1CO[C@H]2OCC[C@H]21)S(=O)(=O)c1ccc(-c2nc(CO)co2)cc1` ? 6.59

###

Would you mind telling me the reported pIC50 of each entry?
System: HIV-1DRV^RP40
Test: microbe, parasite or virus in culture
Format: cell-based
Conditions: Human immunodeficiency virus 1, MT4
pIC50: −log10 of the molar value.

molecule	propertyLabel	val
COC(=O)c1coc(-c2ccc(S(=O)(=O)N(CC(C)C)C[C@@H](O)[C@H](Cc3ccccc3)NC(=O)O[C@H]3CO[C@H]4OCC[C@H]43)cc2)n1 [3g]	pIC50	< 6.00

# context switch: different molecule, same pIC50
Which measured pIC50 belongs to CC(C)CN(C[C@@H](O)[C@H](Cc1ccccc1)NC(=O)O[C@H]1CO[C@H]2OCC[C@H]21)S(=O)(=O)c1ccc(N)cc1 [DRV, darunavir, reference compound] , tested on HIV-1DRV^RP40? < 6.00

###

System: HIV-1LAI
Assay: Antiviral assay using MT-2 cells exposed to HIV-1LAI
Format: cell-based
Conditions: Human immunodeficiency virus 1, MT2, read-out: antiviral IC50
propertyLabel: IC50 (nM)
Give bare numbers, in nM.

# batch size: 2; output IC50 per entry
1. COC(=O)c1coc(-c2ccc(S(=O)(=O)N(CC(C)C)C[C@@H](O)[C@H](Cc3ccccc3)NC(=O)O[C@H]3CO[C@H]4OCC[C@H]43)cc2)n1 [3g]
2. CC(C)CN(C[C@@H](O)[C@H](Cc1ccccc1)NC(=O)O[C@H]1CO[C@H]2OCC[C@H]21)S(=O)(=O)c1ccc(N)cc1 [DRV, darunavir, reference compound]

[6.2, 1.6]

###

System: HIVDRV^RP20
Assay: Antiviral activity of 3b against HIVDRV^RP20
Assay type: cell-based, HIV
Settings: read-out: Antiviral activity (EC50)
propertyLabel: pEC50
One number for each entry, as −log10 of the molar value.

Which measured pEC50 belongs to `CC(C)CN(C[C@@H](O)[C@H](Cc1ccccc1)NC(=O)O[C@H]1CO[C@H]2OCC[C@H]21)S(=O)(=O)c1ccc(C(N)=O)cc1` , tested on HIVDRV^RP20? 7.01
